MEASUREMENT_TARGET: T1, recombinant HMG1 purified from E. coli as a calmodulin binding protein (CBP) fusion protein (human, UniProt A9RA84 1-215 (Papio anubis entry))
T1 sequence: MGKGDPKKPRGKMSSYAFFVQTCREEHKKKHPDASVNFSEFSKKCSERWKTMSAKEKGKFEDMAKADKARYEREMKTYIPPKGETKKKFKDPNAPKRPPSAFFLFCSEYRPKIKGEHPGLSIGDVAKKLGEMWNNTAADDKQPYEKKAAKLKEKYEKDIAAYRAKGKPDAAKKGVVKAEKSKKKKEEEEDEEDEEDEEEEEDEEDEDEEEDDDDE
PROTOCOL_TEXT: cell-based or functional assay
Assignment: determine reported IC50, inhibition of rHMG1 stimulated IL-1β release from human PBMC for the given binders.
Record the value in µg/mL, omitting the unit from your answer.

Look at this binder and give its reported IC50, inhibition of rHMG1 stimulated IL-1β release from human PBMC. anti-HMG1 antibody S10 (antibody, V domains shown) VH: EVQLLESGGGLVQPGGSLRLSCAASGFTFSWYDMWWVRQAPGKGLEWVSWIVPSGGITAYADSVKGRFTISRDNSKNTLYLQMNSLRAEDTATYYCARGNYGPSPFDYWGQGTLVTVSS VL: DIQMTQSPGTLSLSPGERATLSCRATQSVRKNFLAWYQQKPGQAPRLLIYDASSRATGIPDRFSGSGSGTDFTLTISRLEPEDFAVYYCQQYGNSPIIFGQGTRLEIK
2.59

GET /values?readout=IC50, inhibition of rHMG1 stimulated IL-1β release from human PBMC&item= anti-HMG1 antibody G4 (antibody, V domains shown, also called ATCC PTA-6258) VH: EVQLLESGGGLVQPGGSLRLSCAASGFTFSWYDMTWVRQAPGKGLEWVSSISPSGGYTKYADSVKGRFTISRDNSKNTLYLQMNSLRAEDTAVYYCTTEFYDYLDVWGKGTTVTVSS VL: DIQMTQSPGTLSLSPGEGATLSCRASQSVSSTYLAWYQQKPGQAPRLLIYEASKRATGTPARFSGSGSGTDFTLSISSLEPEDFAVYYCQHRHNWPPQWTFGQGTKVEVK
5.01

Return reported IC50, inhibition of rHMG1 stimulated IL-1β release from human PBMC; argument: anti-HMG1 antibody G20 (antibody, V domains shown) VH: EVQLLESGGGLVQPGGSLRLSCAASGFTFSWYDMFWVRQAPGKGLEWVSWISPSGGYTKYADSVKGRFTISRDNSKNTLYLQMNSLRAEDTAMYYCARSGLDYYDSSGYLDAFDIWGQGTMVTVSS VL: DIQMTQSPSSVSASVGDRVTITCRASQDVSIWLAWYQQKPGKAPKLLIFGASRLQSGVPSRFSGSRSGADFTLTIDSVQPEDFASYYCQQADSFPLTFGGGTKVEIK
0.4
